Form field: EC50 at 72 h (one value per entry).
method description: CellTiter 96 AQueous One Solution (MTS) cell proliferation assay
Type: cell-based
assay conditions: human, MM.1S multiple myeloma cells; MM.1S cells, 72 h treatment; read-out: Cytotoxicity [EC50]

Recorded results for 5 compounds are shown here.
# compound, readout name, measured result
rows = [
    ("O=C(/C=C\\n1cnc(-c2cc(C(F)(F)F)cc(C(F)(F)F)c2)n1)NCC1CCCNC1 (stereo not shown) [Compound 19]", "EC50 at 72 h", "1 to 10 µM"),
    ("O=C(/C=C\\n1cnc(-c2cc(C(F)(F)F)cc(C(F)(F)F)c2)n1)NCc1cncnc1 [Compound 14]", "EC50 at 72 h", "< 1 µM"),
    ("CN(C)CC1CN(C(=O)/C=C\\n2cnc(-c3cc(C(F)(F)F)cc(C(F)(F)F)c3)n2)C1 [Compound 25]", "EC50 at 72 h", "< 1 µM"),
    ("CN1CCCC(CNC(=O)/C=C\\n2cnc(-c3cc(C(F)(F)F)cc(C(F)(F)F)c3)n2)C1 (stereo not shown) [Compound 27]", "EC50 at 72 h", "< 1 µM"),
    ("CC1(O)CN(C(=O)/C=C\\n2cnc(-c3cc(C(F)(F)F)cc(C(F)(F)F)c3)n2)C1 [Example 8]", "EC50 at 72 h", "< 1 µM"),
]

Q: So what's the measured EC50 at 72 h for this one? O=C(/C=C\n1cnc(-c2cc(O)cc(C(F)(F)F)c2)n1)N1CC(F)(F)C1 [Example 3]
Result: < 1 µM

Q: What do you have for O=C(/C=C\n1cnc(-c2cc(C(F)(F)F)cc(C(F)(F)F)c2)n1)N1CCC(F)(F)CC1 [Example 6] ?
Result: 1 to 10 µM

###

Form field: AUC(0-inf) (one value per entry).
method description: Pharmacokinetic (PK) assay, plasma AUC
Type: in vivo
assay conditions: 5 mg/kg, mouse, PO, 5 mpk, read-out: AUCInf hr * ng/mL (mouse, PO), tested at 5 mpk
Answer in ng·h/mL, number only, no unit symbol.

Recorded results for 2 molecules are shown here.
# smiles record, AUC(0-inf) / ng·h/mL
records = [
    ("O=C(/C=C\\n1cnc(-c2cc(C(F)(F)F)cc(C(F)(F)F)c2)n1)NCc1cnco1", 3080),
    ("NCC1(F)CN(C(=O)/C=C\\n2cnc(-c3cc(C(F)(F)F)cc(C(F)(F)F)c3)n2)C1", 1240),
]

Read the next record carefully.
Q: So what's the measured AUC(0-inf) for this one? CC1(O)CN(C(=O)/C=C\n2cnc(-c3cc(C(F)(F)F)cc(C(F)(F)F)c3)n2)C1
Result: 9050

###

Form field: EC50 at 72 h (one value per entry).
method description: CellTiter 96 AQueous One Solution (MTS) cell proliferation assay
Assay type: cell-based
assay conditions: human, MM.1S multiple myeloma cells; MM.1S cells, 72 h treatment; read-out: Cytotoxicity [EC50]

Recorded results for 5 compounds are shown here.
# compound, EC50 at 72 h
records = [
    ("CN(C)CC1(F)CN(C(=O)/C=C\\n2cnc(-c3cc(C(F)(F)F)cc(C(F)(F)F)c3)n2)C1", "< 1000 nM"),
    ("O=C(/C=C\\N1CCC(c2cc(C(F)(F)F)cc(C(F)(F)F)c2)C1)N1CC(F)(F)C1 (stereo not drawn)", "> 10000 nM"),
    ("CN(Cc1cncnc1)C(=O)/C=C\\n1cnc(-c2cc(C(F)(F)F)cc(C(F)(F)F)c2)n1", "1000 to 10000 nM"),
    ("O=C(/C=C\\n1cnc(-c2cc(C(F)(F)F)cc(C(F)(F)F)c2)n1)N1CC(F)(C(=O)O)C1", "1000 to 10000 nM"),
    ("NCC1(F)CN(C(=O)/C=C\\n2cnc(-c3cc(C(F)(F)F)cc(C(F)(F)F)c3)n2)C1", "< 1000 nM"),
]

Q: So what's the measured EC50 at 72 h for this one? O=C(/C=C\n1cnc(-c2cc(C(F)(F)F)cc(C(F)(F)F)c2)c1)N1CC(F)(F)C1
Result: < 1000 nM

Q: What do you have for O=C(/C=C\n1cnc(-c2cc(C(F)(F)F)cc(C(F)(F)F)c2)n1)N1CCCC(F)(F)C1 ?
Result: 1000 to 10000 nM

Q: What do you have for CC(NC(=O)/C=C\n1cnc(-c2cc(C(F)(F)F)cc(C(F)(F)F)c2)n1)c1cnccn1 (stereo not drawn) ?
Result: 1000 to 10000 nM

Q: What do you have for O=C(/C=C\n1cnc(-c2cc(C(F)(F)F)cc(C(F)(F)F)c2)n1)N1CC(F)C1 ?
Result: < 1000 nM

Q: What do you have for O=C(/C=C\n1cnc(-c2cc(C(F)(F)F)cc(C(F)(F)F)c2)n1)N1CCC(O)CC1 ?
Result: < 1000 nM

Q: What do you have for Cc1ncc(CNC(=O)/C=C\n2cnc(-c3cc(C(F)(F)F)cc(C(F)(F)F)c3)n2)c(C)n1 ?
Result: < 1000 nM

###

method description: Brain to plasma (B:P) ratio determination
Format: in vivo
assay conditions: brain and plasma; mouse, PO at 10 mg/kg, 2 hours post-dose
readout name: Kp at 2 h
Please give only the number in your answer, with no unit.

Recorded results for 2 compounds are shown here.
# smiles record, measured result
measured = [
    ("NCC1(F)CN(C(=O)/C=C\\n2cnc(-c3cc(C(F)(F)F)cc(C(F)(F)F)c3)n2)C1", 13.3),
    ("CC1(O)CN(C(=O)/C=C\\n2cnc(-c3cc(C(F)(F)F)cc(C(F)(F)F)c3)n2)C1", 3.16),
]

Q: So what's the measured Kp at 2 h for this one? O=C(/C=C\n1cnc(-c2cc(C(F)(F)F)cc(C(F)(F)F)c2)n1)N1CC(F)(F)C1
Result: 5

Q: What do you have for O=C(/C=C\n1cnc(-c2cc(C(F)(F)F)cc(C(F)(F)F)c2)n1)NNc1ccccn1 ?
Result: 1.8

###

method description: Pharmacokinetic (PK) assay, plasma AUC
Assay type: in vivo
assay conditions: 10 mg/kg, mouse, PO, 10 mpk, read-out: AUCInf hr * ng/mL (mouse, PO, 10 mpk)
readout name: log10(AUC(0-inf)) (log10 of the value in ng·h/mL)
Heads up, the numbers here are log10 of AUC(0-inf) in ng·h/mL units.

Recorded results for 4 compounds are shown here.
# compound, log10(AUC(0-inf))
data = [
    ("CN(C)CC1CN(C(=O)/C=C\\n2cnc(-c3cc(C(F)(F)F)cc(C(F)(F)F)c3)n2)C1 [Compound 25]", 3.42),
    ("O=C(/C=C\\n1cnc(-c2cc(C(F)(F)F)cc(C(F)(F)F)c2)n1)NNc1cnccn1 [Compound 70]", 4.00),
    ("O=C(/C=C\\n1cnc(-c2cc(F)cc(C(F)(F)F)c2)n1)N1CC(F)(F)C1 [Example 2]", 2.60),
    ("O=C(/C=C\\n1cnc(-c2cc(C(F)(F)F)cc(C(F)(F)F)c2)n1)N1CC(F)C1 [Example 7]", 3.40),
]

Q: So what's the measured log10(AUC(0-inf)) for this one? O=C(/C=C\n1cnc(-c2cc(C(F)(F)F)cc(C(F)(F)F)c2)n1)NNc1ccccn1 [Compound 71]
Result: 4.03

Q: What do you have for O=C(/C=C\n1cnc(-c2cc(C(F)(F)F)cc(C(F)(F)F)c2)n1)N1CCC1 [Compound 23] ?
Result: 2.72

Q: What do you have for O=C(/C=C\n1cnc(-c2cc(C(F)(F)F)cc(C(F)(F)F)c2)n1)N1CC(F)(F)C1 [Compound 1] ?
Result: 4.09

###

method description: CellTiter 96 AQueous One Solution (MTS) cell proliferation assay
Type: cell-based
assay conditions: human, MM.1S multiple myeloma cells; MM.1S cells, 72 h treatment; read-out: Cytotoxicity [EC50]
Protocol: The CellTiter 96® AQueous One Solution cell proliferation assay (Promega) was used on MM.1S multiple myeloma cell line to study the cytotoxic and cytostatic properties of the compounds. […] Assays are performed by adding a small amount of the CellTiter 96® AQueous One solution reagent directly to culture wells, incubating for 1-4 hours and then recording the absorbance at 490 nm with a 96-well plate reader. […]
Form field: EC50 at 72 h (one value per entry).

# molecule, measured result
rows = [
    ("COC(=O)C1(F)CN(C(=O)/C=C\\n2cnc(-c3cc(C(F)(F)F)cc(C(F)(F)F)c3)n2)C1", "< 1000 nM"),
]

Q: So what's the measured EC50 at 72 h for this one? O=C(/C=C\n1cnc(-c2cc(C(F)(F)F)cc(C(F)(F)F)c2)n1)NCc1cnco1
Result: < 1000 nM

Q: What do you have for O=C(/C=C/n1cnc(-c2cc(C(F)(F)F)cc(C(F)(F)F)c2)n1)N1CC(F)(F)C1 ?
Result: < 1000 nM

Q: What do you have for O=C(O)C1CN(C(=O)/C=C\n2cnc(-c3cc(C(F)(F)F)cc(C(F)(F)F)c3)n2)C1 ?
Result: 1000 to 10000 nM

Q: What do you have for CN(Cc1cnco1)C(=O)/C=C\n1cnc(-c2cc(C(F)(F)F)cc(C(F)(F)F)c2)n1 ?
Result: 1000 to 10000 nM

Q: What do you have for O=C(/C=C\n1cnc(-c2cc(C(F)(F)F)cc(C(F)(F)F)c2)n1)NC1CCc2ncccc21 (stereo not drawn) ?
Result: 1000 to 10000 nM
